Molecular target: Phosphatidylinositol 4,5-bisphosphate 3-kinase catalytic subunit delta isoform (Homo sapiens)
Sequence (O00329 whole entry): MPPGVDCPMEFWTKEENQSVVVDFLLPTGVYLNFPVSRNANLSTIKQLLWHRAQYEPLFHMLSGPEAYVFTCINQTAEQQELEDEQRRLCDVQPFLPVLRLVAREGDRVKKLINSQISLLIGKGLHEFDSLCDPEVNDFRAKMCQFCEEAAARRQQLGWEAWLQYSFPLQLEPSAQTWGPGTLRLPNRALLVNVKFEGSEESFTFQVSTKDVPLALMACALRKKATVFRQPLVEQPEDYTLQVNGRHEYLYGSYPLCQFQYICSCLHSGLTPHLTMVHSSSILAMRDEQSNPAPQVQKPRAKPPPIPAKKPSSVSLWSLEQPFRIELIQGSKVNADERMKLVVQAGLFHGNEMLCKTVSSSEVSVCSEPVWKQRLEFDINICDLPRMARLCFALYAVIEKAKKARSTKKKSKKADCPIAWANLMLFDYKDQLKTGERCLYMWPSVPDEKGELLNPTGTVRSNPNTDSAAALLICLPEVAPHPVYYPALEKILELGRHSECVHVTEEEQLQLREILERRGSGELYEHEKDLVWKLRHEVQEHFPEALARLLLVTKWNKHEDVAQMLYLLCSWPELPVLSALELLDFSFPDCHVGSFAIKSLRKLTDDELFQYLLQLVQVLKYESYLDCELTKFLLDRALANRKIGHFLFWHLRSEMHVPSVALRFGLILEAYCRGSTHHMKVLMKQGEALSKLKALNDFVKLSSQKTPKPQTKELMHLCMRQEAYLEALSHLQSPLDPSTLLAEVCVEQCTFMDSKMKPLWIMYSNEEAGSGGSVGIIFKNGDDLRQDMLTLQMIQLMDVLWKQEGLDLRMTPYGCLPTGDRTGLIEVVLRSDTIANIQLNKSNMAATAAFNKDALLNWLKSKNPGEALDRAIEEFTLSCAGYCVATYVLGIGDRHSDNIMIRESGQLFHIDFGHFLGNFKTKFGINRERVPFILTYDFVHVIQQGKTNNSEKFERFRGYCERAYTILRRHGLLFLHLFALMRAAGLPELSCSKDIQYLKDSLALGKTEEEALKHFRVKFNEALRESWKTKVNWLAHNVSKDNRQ
Assay: Inhibition of human recombinant PI3Kdelta using PIP2 by Kinase-Glo Plus assay
// classify: if (IC50 < 0.08 µM) y else n

{"COMPOUND": "C[C@@H](Oc1cc(F)cc(F)c1)c1cc(C(=O)N(C)C)cc2c(=O)cc(N3CCOCC3)oc12", "CLASSIFICATION": "n"}
{"COMPOUND": "CCNC(=O)c1cc(C(C)Nc2cc(F)cc(F)c2)c2oc(N3CCOCC3)cc(=O)c2c1 (racemic)", "CLASSIFICATION": "y"}

Is IC50 of COCCN(C)C(=O)c1cc(C(C)Nc2cc(F)cc(F)c2)c2oc(N3CCOCC3)cc(=O)c2c1 (racemic) strictly below 0.08 µM? n

Is IC50 of `C[C@@H](Nc1ccc(F)c(F)c1)c1cc(C(=O)N(C)C)cc2c(=O)cc(N3CCOCC3)oc12` strictly below 0.08 µM? y

Is IC50 of CC(Nc1cccc(Cl)c1)c1cc(C(=O)N(C)C)cc2c(=O)cc(N3CCOCC3)oc12 (racemic) strictly below 0.08 µM? y

Is IC50 of CC(Nc1ccc(F)cc1)c1cc(C(=O)N(C)C)cc2c(=O)cc(N3CCOCC3)oc12 (racemic) strictly below 0.08 µM? n

Is IC50 of CC(Nc1cc(Cl)cc(Cl)c1)c1cc(C(=O)N(C)C)cc2c(=O)cc(N3CCOCC3)oc12 (racemic) strictly below 0.08 µM? y
